# Test Protocol: Pharmacokinetics in female BALB/c nude mice bearing A375 xenografts, 1 day dosing (PK and PD study): plasma, tumor and brain concentrations, AUC
# Assay type: in vivo
# Recorded Conditions: mouse, brain, po, 0.75 mg/kg, 0.75 mg/kg p.o. BID × 1 day; post 2nd dose; 4 h; read-out: Mean Concentration in Brain ± SEM
Property Name: concentration at 4 h (ng/g)
All answers are understood in ng/g, so give the number only.

Exam item: Return concentration at 4 h for the following compound: CCN(C)S(=O)(=O)Nc1ccc(F)c(Oc2ccc3ncn(C4CC5(CCN(C6CC7(C6)CN(c6cc8c(cc6F)c(N6CCC(=O)NC6=O)nn8C)C7)CC5)C4)c(=O)c3c2)c1C#N (stereo not shown)
Marked response: 10.2
